B1: PSD2 (parent)
chain: LTHFSRRYCQCNPDDSTSEDGIHT

Variants of: B1
protocol: protein stability index of a GFP-peptide fusion (GPS, HEK-293T) (PSI 1-6); higher = more stable;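 further: lentivirally expressed fusions sorted by FACS into six bins by GFP to DsRed ratio, PSI derived from sequencing read proportions per bin multiplied by bin number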
measurement context: c terminus: a fixed tail appended
Record Fulfilled whenever protein stability index is at 3 or higher; record Not fulfilled when lower.

Look over these answered cases.
item sequence	class
LTHFSDRYCQCNPDDSTSEDGIHT [R6D]	Fulfilled
HTHFSRRYCQCNPDDSTSEDGIHT [L1H]	Fulfilled
LTHFSRRYCQCNPNDSTSEDGIHT [D14N]	Not fulfilled
LAHFSRRYCQCNPDDSTSEDGIHT [T2A]	Fulfilled

Could you please find out whether LTHFMRRYCQCNPDDSTSEDGIHT [S5M] has protein stability index that meets 3 or exceeds it?
Not fulfilled

Could you please find out whether LTHFSFRYCQCNPDDSTSEDGIHT [R6F] has protein stability index that meets 3 or exceeds it?
Not fulfilled

Could you please find out whether LTHFSRDYCQCNPDDSTSEDGIHT [R7D] has protein stability index that meets 3 or exceeds it?
Fulfilled

Could you please find out whether LTHFSRTYCQCNPDDSTSEDGIHT [R7T] has protein stability index that meets 3 or exceeds it?
Fulfilled
